I'd appreciate it if you could supply EC50 values for the items below.
molecular target: human recombinant mGluR5 (Homo sapiens); assay: positive modulation of mGluR5, calcium based FLIPR assay; conditions: EC50 of the modulation; HEK 293 cell line expressing human recombinant mGluR5; glutamate at approximately 5% basal stimulation; peak height of Ca fluorescence signal
Sequence (P41594 21-1212): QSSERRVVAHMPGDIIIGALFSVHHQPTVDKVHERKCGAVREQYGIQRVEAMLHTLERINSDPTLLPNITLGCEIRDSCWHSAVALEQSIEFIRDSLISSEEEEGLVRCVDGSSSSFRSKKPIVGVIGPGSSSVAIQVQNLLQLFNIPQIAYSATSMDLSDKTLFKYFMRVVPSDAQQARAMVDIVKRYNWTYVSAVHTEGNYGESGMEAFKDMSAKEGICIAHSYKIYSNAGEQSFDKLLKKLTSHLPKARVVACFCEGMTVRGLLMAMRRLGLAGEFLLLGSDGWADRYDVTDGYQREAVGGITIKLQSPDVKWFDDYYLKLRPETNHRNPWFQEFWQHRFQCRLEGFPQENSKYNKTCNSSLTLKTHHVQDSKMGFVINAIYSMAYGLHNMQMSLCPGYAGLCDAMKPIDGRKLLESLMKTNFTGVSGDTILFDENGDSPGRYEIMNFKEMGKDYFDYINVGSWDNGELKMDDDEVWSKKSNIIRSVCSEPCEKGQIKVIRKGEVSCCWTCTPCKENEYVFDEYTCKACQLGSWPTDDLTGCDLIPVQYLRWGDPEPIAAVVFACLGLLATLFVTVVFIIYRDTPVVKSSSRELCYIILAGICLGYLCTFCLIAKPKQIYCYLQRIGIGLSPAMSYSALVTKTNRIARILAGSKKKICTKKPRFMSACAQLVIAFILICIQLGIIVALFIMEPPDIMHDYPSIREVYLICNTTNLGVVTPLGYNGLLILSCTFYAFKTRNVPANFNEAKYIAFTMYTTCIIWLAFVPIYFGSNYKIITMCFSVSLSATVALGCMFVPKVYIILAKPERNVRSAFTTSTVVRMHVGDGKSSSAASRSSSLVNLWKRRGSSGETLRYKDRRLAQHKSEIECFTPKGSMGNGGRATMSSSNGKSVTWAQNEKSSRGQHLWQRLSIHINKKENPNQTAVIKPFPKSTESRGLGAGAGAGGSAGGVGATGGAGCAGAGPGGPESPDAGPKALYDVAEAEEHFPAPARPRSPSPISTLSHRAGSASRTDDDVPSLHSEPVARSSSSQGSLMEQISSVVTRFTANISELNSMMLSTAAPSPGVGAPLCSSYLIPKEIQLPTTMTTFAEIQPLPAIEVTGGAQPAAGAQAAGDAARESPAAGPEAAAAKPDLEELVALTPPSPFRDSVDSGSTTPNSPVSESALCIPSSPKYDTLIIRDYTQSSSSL
Numbers only, in nM.

• Cc1cc(-c2cn(-c3ccccc3)c(CC(=O)N3CCc4nc(N)sc4CC3)n2)ccc1F [Example 7.02.26.] = 71

Please look at the items below and tell me EC50 for each one, in order.
1. Cc1ccc(-c2cn(-c3ccc(F)cc3)c(CC(=O)N3CCc4nc(C)sc4CC3)n2)cc1 [Example 7.02.06.]
2. Cc1nc2c(s1)CN(C(=O)Cc1nc(-c3ccc(F)c(C)c3)cn1-c1ccccc1)C2 [Example 7.02.28.]
3. COc1ccc(-c2cn(-c3ccc(F)cc3)c(CC(=O)N3CCN(c4cccc(C#N)c4)C(=O)C3)n2)cc1 [Example 7.02.30.]
4. O=C(Cc1nc(-c2ccc(F)cc2)cn1-c1ccc(F)cc1)N1CCN(c2noc3ccccc23)CC1 [Example 7.02.02.]
5. COc1ccc(-c2cn(-c3ccc(F)cc3)c(CC(=O)N3Cc4nc(C)sc4C3)n2)cc1 [Example 7.02.14.]
6. COc1cccc(-c2cn(-c3ccc(F)cc3)c(CC(=O)N3CCc4nc(C)oc4C3)n2)c1 [Example 7.02.21.]

Ans:
[93, 48, 82, 114, 87, 1120]
